Assay: Systemic safety indices: mortality 24 hours after intraperitoneal injection in rats
Test Settings: rat, in vivo, ip
Counter-ions that a name gives are not always drawn.
Value Kind: LD50 at 24 h

{"Compound": "COc1ccc2c(c1)[C@]13CCCC[C@@H]1[C@H](C2)N(C)CC3 [hydrobromide monohydrate]", "Value Kind": "LD50 at 24 h", "Measured": "138 mg/kg"}
